- Test system: RXF 393
- experiment notes: NCI tumour cell line growth inhibition, 48 h
Active and inactive are the calls of the source. Cut-off read from the data, not from the text of the source: active = GI50 up to about 1.1 µM and inactive = higher.
Respond using exactly one of the listed classes: 1 (active), -1 (inactive)

CC(C)(C)OC(=O)N1CC(COS(C)(=O)=O)c2ccc(O)cc21 (stereo not drawn) = 1

Ask: Kindly provide the recorded test outcome for the following molecule: CO/C=C(/C(=O)OC)c1ccccc1[C@H]1C[C@@H]1c1ccccc1
Reply: -1

Ask: Please give the result for COC(=O)c1ccc(CCc2cc(O)c(Br)cc2O)cc1 too.
Reply: -1

Ask: CC1OC(OC2C(O)COC(OC3C(C)OC(OC4C(OC(=O)[C@]56CCC(C)(C)C[C@@H]5C5=CCC7[C@@]8(C)C[C@H](O)[C@H](OC9OC(CO)C(O)C(OC%10OC(CO)C(O)C(O)C%10O)C9O)[C@@](C)(CO)[C@@H]8CC[C@@]7(C)[C@]5(C)CC6)OCC(O)C4O)C(O)C3O)C2O)C(O)C(O)C1O (stereo partly drawn) , same question.
Reply: -1

Ask: How about COc1ccc(-c2oc3c(OC)c(OC)c(OC)c(O)c3c(=O)c2OC)cc1O ?
Reply: 1

Ask: Likewise for CN1C(=O)C(CC(=O)O)NC1=S (stereo not drawn) ?
Reply: -1

Ask: Also check CC(=O)N1C(c2[nH]c3ccccc3c2-c2ccccc2)CCN1c1ccccc1 (stereo not drawn)
Reply: -1

Ask: Likewise for COCN1C(=O)[C@@H]2C[C@@H](OC/C=C/CBr)CN2C(=O)c2ccccc21 ?
Reply: -1

---

molecules and their reported GI50
- Test system: SW-620
- experiment notes: NCI tumour cell line growth inhibition, 48 h
Active and inactive are the calls of the source. Rule as the data show it: active = GI50 up to about 1.1 µM and inactive = higher.

Worked examples, 2 molecules total:
CCOC(=O)N/N=C(/OCC)c1ccccc1 = > 100 µM (inactive)
Cc1cc(N(CCCl)CCCl)ccc1/C=N/NC(=O)Cc1cc(=O)oc2cc(O)ccc12 = 21.4 µM (inactive)

Ask: Which GI50 is listed for O=C1CCCC2C3CC(CN12)C1CCCCN1C3.[O-][Cl+3]([O-])([O-])O (centres undefined) ?
Reply: > 100 µM (inactive)

Ask: Entry CCn1c2c(c3c(C(=O)OC)c(O)ccc31)C(=O)c1ccccc1C2=O please
Reply: 15 µM (inactive)

Ask: Ok, now NS(=O)(=O)c1ccc(/N=N/c2nc3[nH]cnc(=S)c3[nH]2)cc1
Reply: 2.29 µM (inactive)

Ask: Next molecule up: CN(C)C(=S)N1C(=S)N(c2ccccc2)C(=N/c2ccccc2)/C1=N\c1ccccc1
Reply: > 100 µM (inactive)

Ask: And then Nc1ccc(S(=O)(=O)NCc2nccs2)cc1 , what is it?
Reply: 30.5 µM (inactive)

Ask: Another: CC(CN(C)C)C(=O)/C=C/c1ccc(Cl)c(Cl)c1 (centres undefined)
Reply: 2.07 µM (inactive)

Ask: Next up: CSc1nc(NC2OC(COC(C)=O)C(OC(C)=O)C(OC(C)=O)C2OC(C)=O)c(/N=C/C=N/c2c(NC3OC(COC(C)=O)C(OC(C)=O)C(OC(C)=O)C3OC(C)=O)nc(SC)[nH]c2=O)c(=O)[nH]1 (centres undefined)
Reply: > 100 µM (inactive)

---

- Tested on: SK-MEL-5
- experiment notes: NCI tumour cell line growth inhibition, 48 h
The source made the active and inactive calls. Rule as the data show it: active = GI50 up to about 1.1 µM and inactive = higher.
Each record here notes measured GI50.

As a guide, the following entries are already answered.
C[C@@]1(CCCCCCCCCCc2ccccc2)C[C@@]2(C)OC(=O)C[C@H]2OO1 = 1.44 µM (inactive)
CC(NCCN(C)C)C1CCC2C3CCc4cc(O)ccc4C3CCC12C (stereo unspecified) = 1.71 µM (inactive)
CCC1(N=[N+]=[N-])C(=O)c2ccccc2N(C)C1=O (stereo unspecified) = > 100 µM (inactive)
O=C1NCN(c2ccccc2)C12CCN(CC1COc3ccccc3O1)CC2 (stereo unspecified) [SPIROXATRINE] = > 100 µM (inactive)
O=C1NC(N2CCOCC2)=N/C1=C\c1ccco1 = > 100 µM (inactive)

Ask: Tell me the measured GI50 of S=C1N=C(Cl)/C(=C\c2ccccc2)N1 , please.
Reply: > 100 µM (inactive)

Ask: Same thing, different compound: C=C(C(=O)OC)[C@@H]1C[C@@H](OC(C)=O)C2=C[C@H](C[C@@]3(C)O[C@@H]3C3=CC(C)=C(O3)[C@H]1OC(C)=O)OC2=O [BIPINNATIN I]
Reply: 15.2 µM (inactive)

Ask: Try this compound next: CC(NNC(=O)c1cc[n+]([BH2-]C#N)cc1)c1ccccc1F (stereo unspecified)
Reply: > 100 µM (inactive)

Ask: What do we get for COCN1C(=O)[C@@H]2C[C@@H](OC/C=C/CBr)CN2C(=O)c2ccccc21 ?
Reply: 14.4 µM (inactive)

---

- System: CAKI-1
- experiment notes: NCI tumour cell line growth inhibition, 48 h
Activity calls are given as the source filed them. Rule as the data show it: active = GI50 up to about 1.1 µM and inactive = higher.
Form entry, call: pick from active, inactive

The examples below pair each entry with its known result.
C#C[C@]1(O)CC[C@H]2[C@@H]3CCC4=C/C(=N/OC(=O)c5cccc6c(=O)c7ccccc7[nH]c56)CCC4[C@H]3CC[C@@]21CC (stereo not given in full) = inactive
Cn1c2ccccc2c(=NNc2ccccc2C(=O)O)c2ccccc21 = inactive
O=C1OCC(C(=O)c2cccc(O)c2)C1=O (stereo not given) = inactive
Nc1nc(Cl)nc2c1ncn2C1CCC(CO)O1 (stereo not given) = inactive
c1ccc(/C(=N/Nc2nc3ccccc3s2)C2CCCCC2)nc1 = inactive

Ask: Name the outcome recorded for Nc1ncnc2c1ncn2C1C=CC(CP(=O)(O)O)C1 (stereo not given) in the assay.
Reply: inactive

Ask: What would you report for O=C(COC(=O)c1cccc2c(=O)c3ccccc3[nH]c12)Nc1ccc(S(=O)(=O)Nc2ncccn2)cc1 ?
Reply: inactive

Ask: What do we get for CC12CCC3(C1)[C@H](CC2=O)C[C@@H](OC(=O)c1ccccc1)C1C(C)(CO)CCC[C@@]13C (stereo not given in full) ?
Reply: active

Ask: Now consider CC1(C)OCC(COC(=O)NCn2cc(-c3ccccc3)nn2)O1 (stereo not given) and answer again.
Reply: inactive

Ask: Next: O=C1C=C(Br)c2c(Br)sc(Br)c21
Reply: inactive

---

- System: SK-MEL-5
- experiment notes: NCI tumour cell line growth inhibition, 48 h
The source made the active and inactive calls. Cut-off read from the data, not from the text of the source: active = GI50 up to about 1.1 µM and inactive = higher.
Below: a set of entries, each annotated with reported GI50.

Worked examples follow.
CCCCCCCCCCCCCCCCCC(=O)Nc1ccn(C2OC(CO)C(O)C2O)c(=O)n1 (stereo not given) = 47.9 µM (inactive)
O=C1C(Cl)=C(Cl)C(Cl)(Cl)C(Cl)C1(Cl)Cl (stereo not given) = 13.7 µM (inactive)
c1ccc(/N=C2\SC(c3ccccc3)CN2C23CC4CC(CC(C4)C2)C3)cc1 (stereo not given) = > 100 µM (inactive)
C#CCOCC12C=CC(O1)C1C(=O)OCC12 (stereo not given) = > 100 µM (inactive)
COC(=O)n1c(=O)n(-c2ccccc2)c(=O)n1C(=O)Nc1ccccc1 = > 100 µM (inactive)
C/C(=C\Cc1cc(O)ccc1O)CCc1c(C)cc(O)c(C=O)c1C = 17.4 µM (inactive)
CC1=NN(C2=NS(=O)(=O)c3ccccc3N2C)C(=O)C1 = > 100 µM (inactive)
Cc1nc([N+](=O)[O-])cn1-c1nc2ccccn2c1[N+](=O)[O-] = 81.8 µM (inactive)
C#Cc1cccc(NC(=O)/C=C\C(=O)O)c1 = > 100 µM (inactive)

From here, focus on the item given below.
Ask: Lab note: need GI50 with SK-MEL-5 for entry COc1cc2c3cc1Oc1c(OC)c(OC)cc4c1[C@@H](Cc1ccc(O)c(c1)Oc1ccc(cc1)C[C@@H]3N(C)CC2)N(C)CC4.c1ccccc1 , please look it up.
Reply: 3.89 µM (inactive)

---

- Tested on: SW-620
- experiment notes: NCI tumour cell line growth inhibition, 48 h
Active and inactive are the calls of the source. No stated cut-off is given here; in the data, active = GI50 up to about 1.1 µM and inactive = higher.
A collection of molecules and their measured GI50

Known GI50 results, listed for orientation:
C=C1N(C=O)C(C)(C)N(O)C1(C)C = > 100 µM (inactive)
C[C@]12CC[C@H]3[C@@H](CCC4=CC(=O)CC[C@@]43C)[C@@H]1CC[C@@H]2C(=O)Nc1ccc([N+](=O)[O-])c(C(F)(F)F)c1 = 20.9 µM (inactive)
C#CCSc1nc(-c2ccco2)n[nH]1 = > 100 µM (inactive)
CC(NNC(=O)c1cc[n+]([BH2-]C#N)cc1)c1ccccc1F (stereo not given) = > 100 µM (inactive)

Ask: Requested read-out: GI50. Entry: O=C(CCC1CCCCC1)NCc1ccc(C(=O)O)cc1
Reply: > 100 µM (inactive)

---

- Tested on: COLO 205
- experiment notes: NCI tumour cell line growth inhibition, 48 h
Active and inactive are the calls of the source. Cut-off read from the data, not from the text of the source: active = GI50 up to about 1.1 µM and inactive = higher.
measured endpoint: GI50

Recorded GI50, per entry:
CSc1ccc(/C=C/C(=O)c2nc3ccccc3[nH]2)cc1 = 18.1 µM (inactive)
CCCCCCCCCCCC(=O)OCC1OC(n2cc(F)c(=O)[nH]c2=O)C(NC(=O)OCc2ccccc2)C(OC(=O)CCCCCCCCCCC)C1O (stereo unspecified) = > 100 µM (inactive)
O=C(CCC1C(=O)NC(=S)NC1=O)c1ccc2ccccc2c1 = > 100 µM (inactive)
Oc1ccncc1-c1cnccc1O = > 100 µM (inactive)
COCN1C(=O)[C@@H]2C[C@@H](OC/C=C/CBr)CN2C(=O)c2ccccc21 = 15.8 µM (inactive)
COP(C)(=O)C1=CCN(C(=O)OCC[Si](C)(C)C)CC1 (stereo unspecified) = > 100 µM (inactive)
NS(=O)(=O)c1nnc(NS(=O)(=O)c2ccc(F)cc2)s1 = > 100 µM (inactive)
O=[N+]([O-])/C(C(Cl)=C(Cl)Cl)=C(\N1CCCCC1)n1nnc2ccccc21 = 17.8 µM (inactive)

# input for lookup
Ask: Form field: reported GI50 of CC1=C2C(=O)NN=C2CCN1c1ccc(Br)cc1
Reply: > 100 µM (inactive)
